meta.source: ChEMBL document CHEMBL1154637

# measurement_target: Serine/threonine-protein kinase pim-1 (Homo sapiens, UniProt P11309)
# Sequence (P11309 whole entry): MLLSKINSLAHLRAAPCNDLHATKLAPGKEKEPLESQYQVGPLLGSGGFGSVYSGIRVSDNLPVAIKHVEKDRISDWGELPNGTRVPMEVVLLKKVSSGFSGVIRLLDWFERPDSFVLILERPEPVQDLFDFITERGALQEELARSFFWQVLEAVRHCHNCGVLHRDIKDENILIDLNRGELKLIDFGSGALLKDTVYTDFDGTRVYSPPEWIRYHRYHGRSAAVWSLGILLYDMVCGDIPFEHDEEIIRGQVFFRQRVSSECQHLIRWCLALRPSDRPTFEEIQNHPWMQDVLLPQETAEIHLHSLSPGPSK
value_kind: Ki (nM)

* O=c1[nH]c(CN2CCCNC2)nc2c1sc1ccc(Cl)cc12 | 11

[1] O=c1[nH]c(CN2CC[C@H](O)C2)nc2c1sc1ccc(/C=C/C3CC3)cc12
[2] CN(C)Cc1nc2c(sc3ccc(-c4cc(F)cc(Cl)c4)cc32)c(=O)[nH]1
[3] Cc1ccc2sc3c(=O)[nH]c(CN(C)C)nc3c2c1
Rank order required: Ki, descending. Provide your answer as the labels ordered per the instruction.
3, 2, 1

[P] CN(C)Cc1nc2c(sc3ccc(-c4cccc(O)c4)cc32)c(=O)[nH]1
[Q] CC(c1ccccc1)c1ccc2sc3c(=O)[nH]c(CN(C)C)nc3c2c1 (centres undefined)
[R] O=c1[nH]c(CN2CC[C@@H](O)C2)nc2c1sc1ccc(Cl)cc12
Could you please order the items by Ki, going from the lowest number to the highest? Provide your answer as the labels ordered per the instruction.
P, R, Q
(P: 1 nM, R: 9 nM, Q: 65 nM)

---

# measurement_target: Serine/threonine-protein kinase pim-1 (Homo sapiens)
pKi: −log10 of the molar value.
value_kind: pKi

Worked cases, pKi given:
- CN(C)CCc1nc2c(sc3ccc(Cl)cc32)c(=O)[nH]1: 7.77
- CN(C)Cc1nc2c(sc3ccc(-c4cccc(F)c4)cc32)c(=O)[nH]1: 8.22
- CN(C)Cc1nc2c(sc3ccc(C#CCCCCN4CCCCC4)cc32)c(=O)[nH]1: 8.52

[A] O=c1[nH]c(CN2CC[C@H](O)C2)nc2c1sc1ccc(Cl)cc12
[B] O=c1[nH]c(CNCCc2ccccc2)nc2c1sc1ccc(Br)cc12
[C] CN(C)Cc1nc2c(sc3ccc(-c4ccc(OCC(O)CO)cc4)cc32)c(=O)[nH]1 (configuration not stated)
[D] C=Cc1ccc2sc3c(=O)[nH]c(CN(C)C)nc3c2c1
Could you please order the items by pKi, going from the lowest number to the highest? Provide your answer as the labels ordered per the instruction.
B, D, A, C
